# aptazyme ON/OFF ratio listing for each entry below
B1: Pistol ribozyme (parent)
chain: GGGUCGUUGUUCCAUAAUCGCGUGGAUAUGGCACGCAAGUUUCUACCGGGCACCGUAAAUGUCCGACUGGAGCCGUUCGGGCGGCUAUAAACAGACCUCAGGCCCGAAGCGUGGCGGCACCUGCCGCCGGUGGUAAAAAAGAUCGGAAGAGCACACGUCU

# Variants of: B1
# methodNotes: aptazyme ON/OFF ratio, guanine; higher = stronger switching; co-transcriptional cleavage with and without guanine
Write the value as a bare number.

Worked cases, answers included:
{"mutationNotation": "U7C U8A G9C U11A", "val": 1.05}
{"mutationNotation": "U8A G9A U10A U11C C13A", "val": 1.04}
{"mutationNotation": "U7C U8A U10A U11A C12U C13G", "val": 1.35}
{"mutationNotation": "U7A U8C G9A U10C U11A C13U", "val": 1.28}
{"mutationNotation": "U7G U8G G9A U10C U11C C12G", "val": 1.21}
{"mutationNotation": "U8G G9U U10G U11A C12A C13U", "val": 1.03}
{"mutationNotation": "U7C U8A U10A U11G C12A C13U", "val": 1.19}
{"mutationNotation": "U8C G9C U10G", "val": 1.43}

Determine its reported aptazyme ON/OFF ratio: U7A U8C G9U U10C U11C 0.995

Determine its reported aptazyme ON/OFF ratio: U8G U10A U11A C12G C13U 1.07

Determine its reported aptazyme ON/OFF ratio: U7C U8G G9A U11G C12U C13G 1.29
